Assay: Inhibitory activity of compound was tested against transcriptional activation by Tat protein in human cells
Assay type: functional, cell-based
Where a SMILES comes first, the peptide text is derived from it. [ ]: non-standard residue; d: D form.
Reported IC50 values for the following compounds.

compound: NCCCC[C@H](N)C(=O)N[C@H](CCCCN)C(=O)N[C@@H](CC(N)=O)C(=O)O (H-Lys-[dK]-Asn-OH)
IC50: ~50 nM
//
compound: NCCCC[C@@H]1NC(=O)[C@@H](N)CCCCNC(=O)CC[C@@H](C(=O)O)NC(=O)[C@H](CC(N)=O)NC(=O)[C@@H](CCCCN)NC1=O
IC50: ~40 nM
